Biological target: Ephrin type-A receptor 3 (Homo sapiens);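 note: mean inhibition value reported from the GSK PKIS kinase profiling screen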
Sequence (whole entry): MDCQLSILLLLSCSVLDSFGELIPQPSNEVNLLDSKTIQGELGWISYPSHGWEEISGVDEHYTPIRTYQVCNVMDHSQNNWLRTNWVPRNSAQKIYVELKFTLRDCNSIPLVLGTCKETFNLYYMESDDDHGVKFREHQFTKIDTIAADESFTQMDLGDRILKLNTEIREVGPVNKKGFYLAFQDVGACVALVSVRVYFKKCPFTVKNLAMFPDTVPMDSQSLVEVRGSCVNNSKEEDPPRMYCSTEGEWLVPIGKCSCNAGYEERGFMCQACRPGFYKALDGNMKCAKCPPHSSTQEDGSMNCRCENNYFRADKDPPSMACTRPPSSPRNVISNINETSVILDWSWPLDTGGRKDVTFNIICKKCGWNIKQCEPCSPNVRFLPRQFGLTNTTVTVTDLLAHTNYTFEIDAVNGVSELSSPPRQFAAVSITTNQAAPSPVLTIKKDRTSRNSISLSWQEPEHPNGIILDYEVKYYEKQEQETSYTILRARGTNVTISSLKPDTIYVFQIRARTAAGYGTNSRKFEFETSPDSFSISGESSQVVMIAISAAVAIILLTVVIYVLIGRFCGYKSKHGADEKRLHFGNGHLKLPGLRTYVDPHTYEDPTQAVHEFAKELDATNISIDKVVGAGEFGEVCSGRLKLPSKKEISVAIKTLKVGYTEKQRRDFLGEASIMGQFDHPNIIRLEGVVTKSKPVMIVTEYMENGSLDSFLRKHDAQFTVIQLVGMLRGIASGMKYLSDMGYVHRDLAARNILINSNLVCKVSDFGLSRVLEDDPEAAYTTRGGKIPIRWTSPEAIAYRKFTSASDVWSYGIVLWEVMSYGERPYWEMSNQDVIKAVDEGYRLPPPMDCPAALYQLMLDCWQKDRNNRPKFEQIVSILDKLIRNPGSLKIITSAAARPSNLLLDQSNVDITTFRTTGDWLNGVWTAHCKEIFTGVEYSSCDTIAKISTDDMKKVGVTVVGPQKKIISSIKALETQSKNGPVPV
Details: at 1 µM

>  <SMILES_STRING>
COc1cc2c(cc1Nc1nc(N3CCc4ccccc43)c3cc[nH]c3n1)N(C(=O)CN(C)C)CC2

>  <UOM>
%

>  <inhibition>
0.93

$$$$
>  <SMILES_STRING>
CCn1c(-c2nonc2N)nc2c(C#CC(C)(C)O)nc(CN3CCCC3)cc21

>  <UOM>
%

>  <inhibition>
1.11

$$$$
>  <SMILES_STRING>
COc1cc2ncn(-c3cc(OCc4ccccc4C(F)(F)F)c(C(N)=O)s3)c2cc1OC

>  <UOM>
%

>  <inhibition>
7.13

$$$$
>  <SMILES_STRING>
NS(=O)(=O)c1ccc(N/N=C2\C(=O)Nc3ccc(C(=O)NCCc4c[nH]cn4)cc32)cc1

>  <UOM>
%

>  <inhibition>
8.06

$$$$
>  <SMILES_STRING>
O=C1NC(=O)C(c2cccc(Cl)c2)=C1Nc1ccc(O)c(Cl)c1

>  <UOM>
%

>  <inhibition>
-2.04

$$$$
>  <SMILES_STRING>
O=C1NC(=O)C(c2ccccc2Cl)=C1Nc1cccc(O)c1

>  <UOM>
%

>  <inhibition>
2.67

$$$$
>  <SMILES_STRING>
COc1ccc(-c2coc3ncnc(N)c23)cc1

>  <UOM>
%

>  <inhibition>
3.4

$$$$
>  <SMILES_STRING>
Cc1cccc(-c2n[nH]cc2-c2ccc3ncccc3n2)n1

>  <UOM>
%

>  <inhibition>
3.6

$$$$
>  <SMILES_STRING>
NCc1ccc(-c2nc(-c3ccc(Cl)c(O)c3)c(-c3ccncc3)[nH]2)cc1

>  <UOM>
%

>  <inhibition>
2.67

$$$$
>  <SMILES_STRING>
COc1ccc(-c2nn3ncccc3c2-c2ccnc(Nc3ccc(Cl)c(C(F)(F)F)c3)n2)cc1

>  <UOM>
%

>  <inhibition>
3.4

$$$$
>  <SMILES_STRING>
CC(=O)Nc1cccc(C#Cc2cncnc2Nc2ccc(OCc3cccc(F)c3)c(Cl)c2)n1

>  <UOM>
%

>  <inhibition>
0.58

$$$$
>  <SMILES_STRING>
CS(=O)(=O)CCNCc1nc(-c2ccc3ncnc(Nc4ccc(F)c(Cl)c4)c3c2)cs1

>  <UOM>
%

>  <inhibition>
4.56

$$$$
>  <SMILES_STRING>
CNC(=O)c1cncc(/C=C/c2c(Cl)cccc2Cl)c1

>  <UOM>
%

>  <inhibition>
5.3

$$$$
>  <SMILES_STRING>
Fc1cccc(COc2ccc(Nc3ncnc4sc(-c5cccs5)cc34)cc2Cl)c1

>  <UOM>
%

>  <inhibition>
-1.54

$$$$
>  <SMILES_STRING>
COc1ccc(-c2ccncc2)cc1C(N)=O

>  <UOM>
%

>  <inhibition>
4.65

$$$$
>  <SMILES_STRING>
CCn1c(-c2nonc2N)nc2ccncc21

>  <UOM>
%

>  <inhibition>
-0.12

$$$$
>  <SMILES_STRING>
CCn1c(-c2nonc2N)nc2cncc(C(=O)N3CC[C@H](N)C3)c21

>  <UOM>
%

>  <inhibition>
5.74

$$$$
>  <SMILES_STRING>
COc1cc2ncn(-c3cc(OCc4ccccc4Cl)c(C(N)=O)s3)c2cc1OC

>  <UOM>
%

>  <inhibition>
0.98

$$$$
>  <SMILES_STRING>
NC(=O)c1ccc(-c2nc(-c3ccccn3)c(-c3ccc4c(c3)OCO4)[nH]2)cc1

>  <UOM>
%

>  <inhibition>
1.89

$$$$
>  <SMILES_STRING>
Cc1ccc(NC(=O)c2ccnc(N3CCCC3)c2)cc1-c1ccc(C(=O)NCC2CC2)cc1

>  <UOM>
%

>  <inhibition>
-0.25

$$$$

---

Molecular target: Homeodomain-interacting protein kinase 4 (Homo sapiens) (UniProt Q8NE63)
Sequence (Q8NE63 whole entry): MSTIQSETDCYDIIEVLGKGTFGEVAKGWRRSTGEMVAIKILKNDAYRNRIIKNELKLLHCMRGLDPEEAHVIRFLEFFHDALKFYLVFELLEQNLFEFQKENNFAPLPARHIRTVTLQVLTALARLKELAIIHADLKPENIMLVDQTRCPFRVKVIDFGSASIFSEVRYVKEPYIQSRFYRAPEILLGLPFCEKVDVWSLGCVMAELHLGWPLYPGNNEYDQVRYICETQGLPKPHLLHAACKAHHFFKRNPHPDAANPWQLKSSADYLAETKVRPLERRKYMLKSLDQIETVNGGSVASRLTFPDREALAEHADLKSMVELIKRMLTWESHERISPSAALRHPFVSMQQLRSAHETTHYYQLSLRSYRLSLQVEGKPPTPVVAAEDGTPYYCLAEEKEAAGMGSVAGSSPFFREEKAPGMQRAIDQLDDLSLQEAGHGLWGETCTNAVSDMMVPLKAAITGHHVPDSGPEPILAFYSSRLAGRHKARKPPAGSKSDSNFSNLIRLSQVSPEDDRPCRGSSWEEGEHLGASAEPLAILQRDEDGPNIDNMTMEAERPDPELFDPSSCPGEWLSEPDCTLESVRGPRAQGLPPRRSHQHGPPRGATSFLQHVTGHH
Conditions: at 1 µM

>  <SMILES_STRING>
COc1ccc(-c2nn3ncccc3c2-c2ccnc(Nc3ccc(Cl)c(C(F)(F)F)c3)n2)cc1

>  <TARGET>
Homeodomain-interacting protein kinase 4 (Homo sapiens) (UniProt Q8NE63)

>  <inhibition (%)>
1.36

$$$$
>  <SMILES_STRING>
COc1cc(C=NNc2ncnc3c2cnn3-c2ccccc2)ccc1O

>  <TARGET>
Homeodomain-interacting protein kinase 4 (Homo sapiens) (UniProt Q8NE63)

>  <inhibition (%)>
39.6

$$$$
>  <SMILES_STRING>
CCN1CCC(CC(=O)Nc2n[nH]c3nc(-c4cccs4)c(Br)cc23)CC1

>  <TARGET>
Homeodomain-interacting protein kinase 4 (Homo sapiens) (UniProt Q8NE63)

>  <inhibition (%)>
8.88

$$$$
>  <SMILES_STRING>
Cc1nn(C)c2cc(N(C)c3ccnc(Nc4cccc(S(N)(=O)=O)c4)n3)ccc12

>  <TARGET>
Homeodomain-interacting protein kinase 4 (Homo sapiens) (UniProt Q8NE63)

>  <inhibition (%)>
4.09

$$$$
>  <SMILES_STRING>
CCn1c(-c2nonc2N)nc2cnc(Oc3cccc(NC(=O)c4ccc(OCCN5CCOCC5)cc4)c3)cc21

>  <TARGET>
Homeodomain-interacting protein kinase 4 (Homo sapiens) (UniProt Q8NE63)

>  <inhibition (%)>
10.4

$$$$
>  <SMILES_STRING>
Nc1ncnc2occ(-c3ccc(NC(=O)Nc4cccc(C(F)(F)F)c4)cc3)c12

>  <TARGET>
Homeodomain-interacting protein kinase 4 (Homo sapiens) (UniProt Q8NE63)

>  <inhibition (%)>
78.3

$$$$
>  <SMILES_STRING>
CCn1c(-c2nonc2N)nc2ccncc21

>  <TARGET>
Homeodomain-interacting protein kinase 4 (Homo sapiens) (UniProt Q8NE63)

>  <inhibition (%)>
-0.65

$$$$
>  <SMILES_STRING>
COc1cccc(-n2ncc3c(N/N=C/c4cccc(F)c4)ncnc32)c1

>  <TARGET>
Homeodomain-interacting protein kinase 4 (Homo sapiens) (UniProt Q8NE63);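 note: values are mean percent inhibition of HIPK4 from the GSK PKIS kinase screen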

>  <inhibition (%)>
21.3

$$$$

---

Target: Casein kinase I isoform gamma-2 (Homo sapiens)
Conditions: at 1 µM
Description: GSK_PKIS: CK1-g2 mean inhibition at 1 uM [Nanosyn]
Quick rule: inhibition of at least 5% means 1 (yes), below that means 0 (no).

>  <SMILES_STRING>
CCn1c(-c2nonc2N)nc2cnc(Oc3cccc(NC(=O)c4ccc(OCCN5CCOCC5)cc4)c3)cc21

>  <QUALITATIVE_LABEL>
0 (no)

$$$$
>  <SMILES_STRING>
COc1cc2ncn(-c3cc(O[C@@H](C)c4ccccc4Cl)c(C(N)=O)s3)c2cc1OC

>  <QUALITATIVE_LABEL>
1 (yes)

$$$$
>  <SMILES_STRING>
CCn1c(-c2nonc2N)nc2c(C#CC(C)(C)O)nc(CN3CCCC3)cc21

>  <QUALITATIVE_LABEL>
0 (no)

$$$$
>  <SMILES_STRING>
CCCN1CCC(Oc2cc(Nc3nc(Nc4cccc(F)c4C(N)=O)c4cc[nH]c4n3)c(OC)cc2Cl)CC1

>  <QUALITATIVE_LABEL>
1 (yes)

$$$$
>  <SMILES_STRING>
Cn1cc(C=C2C(=O)Nc3cccnc32)c2ccccc21

>  <QUALITATIVE_LABEL>
0 (no)

$$$$

These measurements were taken from ChEMBL document CHEMBL1961873.
